All figures here come from PubChem BioAssay (NCI).

- Test system: U251 CNS
- assay_notes: NCI tumour cell line growth inhibition, 48 h
quantity_name: TGI

>  <molecule>
CN(O)C(=O)CCC(NC(=O)CCC(N)C(=O)O)C(=O)NCC(=O)O (stereo unspecified)

>  <TGI>
> 100 µM

$$$$
>  <molecule>
O=C(O)Cc1cccc2c(=O)cc(-c3ccccc3)oc12

>  <TGI>
> 1000 µM

$$$$
>  <molecule>
COC[C@H](NC(=O)c1cnc(C)s1)C(=O)N[C@@H](COC)C(=O)N[C@@H](Cc1ccccc1)C(=O)[C@@]1(C)CO1

>  <TGI>
> 100 µM

$$$$
>  <molecule>
Fc1cccc(COc2ccc(Nc3ncnc4onc(-c5ccccc5)c34)cc2)c1

>  <TGI>
> 86.8 µM

$$$$
>  <molecule>
CC(=O)Nc1nc(C)c(S(=O)(=O)NC(=O)NC2NC(=O)NC2=O)s1 (stereo unspecified)

>  <TGI>
> 100 µM

$$$$

INPUT: Retrieve TGI on U251 CNS; query Cc1ncn(-c2ccccc2O)c1C
OUTPUT: > 100 µM

----------
- Tested on: M14 melanoma
- assay_notes: NCI tumour cell line growth inhibition, 48 h
Overview of reported GI50 across a group of compounds:

Guide cases for GI50, answers given:
>  <molecular_string>
O=C1c2c(c(=O)[nH]c3ccccc23)[C@H](c2ccccc2)[C@@H]2CCCN12

>  <GI50>
3.53 µM

$$$$
>  <molecular_string>
CCCc1nn(C)c2c(=O)[nH]c(-c3cc(S(=O)(=O)N4CCN(C)CC4)ccc3OCC)nc12

>  <GI50>
> 100 µM

$$$$
>  <molecular_string>
COc1ccc(-c2ncnc3c2ncn3CC#CCCl)cc1

>  <GI50>
4.55 µM

$$$$
>  <molecular_string>
COc1cc(-n2ccnc2-c2ccc3ccccc3c2)cc(OC)c1OC

>  <GI50>
0.0376 µM

$$$$

Kindly review the next compound as well.
INPUT: Return GI50 for the following compound: C(=N\Nc1ncc(-c2cc3cc4c(cc3o2)OCO4)s1)/c1ccco1
OUTPUT: 2.9 µM

----------
- System: TK-10 renal
- assay_notes: NCI tumour cell line growth inhibition, 48 h
quantity_name: TGI

Guide cases for TGI, answers given:
>  <molecule>
Cc1c(Cn2c(C)nc3c(C(=O)O)cc(N4CCOCC4)cc32)cccc1C(F)(F)F

>  <system>
TK-10 renal

>  <quantity_name>
TGI

>  <result>
> 100 µM

$$$$
>  <molecule>
Fc1cc(C2=Nn3c(COc4ccccc4Cl)nnc3S/C2=C\c2ccc(Cl)cc2)c(Cl)cc1Cl

>  <system>
TK-10 renal

>  <quantity_name>
TGI

>  <result>
> 100 µM

$$$$
>  <molecule>
O=C1CCCCCCC2=C1C(Sc1ccccc1)CC2 (stereo not given)

>  <system>
TK-10 renal

>  <quantity_name>
TGI

>  <result>
> 100 µM

$$$$
>  <molecule>
C#C[C@]1(O)CC[C@H]2[C@@H]3CCC4=C/C(=N\OCCN5CCCCC5)CC[C@]4(C)[C@H]3CC[C@@]21C

>  <system>
TK-10 renal

>  <quantity_name>
TGI

>  <result>
22.3 µM

$$$$
>  <molecule>
NC(=O)CC1OC(=O)Cc2cc3c(c(O)c21)C(=O)c1c(O)cccc1C3=O (stereo not given)

>  <system>
TK-10 renal

>  <quantity_name>
TGI

>  <result>
> 100 µM

$$$$

INPUT: Return TGI for the following molecule: CC(Oc1ccc2c(-c3ccc(Cl)cc3)cc(=O)oc2c1)C(=O)O (stereo not given)
OUTPUT: > 100 µM

INPUT: Return TGI for the following molecule: CC(C)(C)C1=C(Br)C(F)(C(C)(C)C)OP1(=O)c1ccccc1 (stereo not given)
OUTPUT: 33.1 µM

INPUT: Return TGI for the following molecule: CO/C=C(/C(=O)OC)[C@@H]1C[C@@H]1c1ccc2ccccc2c1
OUTPUT: > 100 µM

INPUT: Return TGI for the following molecule: ClCc1nc2ccccc2[nH]1
OUTPUT: > 100 µM

INPUT: Return TGI for the following molecule: CCOP(=O)(OCC)Oc1c(OC)c2[nH]c(C(=O)OC)cc2c2c(C(=O)O)c[nH]c12
OUTPUT: > 100 µM

----------
- Tested on: TK-10 renal
- assay_notes: NCI tumour cell line growth inhibition, 48 h
quantity_name: TGI

Guide cases for TGI, answers given:
>  <compound>
CCCc1nn(C)c2c(=O)[nH]c(-c3cc(S(=O)(=O)N4CCN(C)CC4)ccc3OCC)nc12

>  <result>
> 100 µM

$$$$
>  <compound>
CCC1=C(c2ccc(OC)cc2)C(C)(C)Oc2c1ccc(O)c2CN1CCCC1

>  <result>
31.3 µM

$$$$
>  <compound>
O=C(C[n+]1ccccc1)N/N=C(/CCC(=O)N(Cc1ccccc1)Cc1ccccc1)CC(=O)c1ccccc1

>  <result>
> 100 µM

$$$$
>  <compound>
COc1ccc(/C=C2\N=C(N3CCCC(CO)C3)NC2=O)cc1 (stereo not given)

>  <result>
> 100 µM

$$$$
>  <compound>
CCCCCCN(CCCCCC)CCC(=O)c1ccc2cc(Br)c3ccccc3c2c1

>  <result>
65.2 µM

$$$$
>  <compound>
Fc1cccc(COc2ccc(Nc3ncnc4onc(-c5ccccc5)c34)cc2)c1

>  <result>
36.1 µM

$$$$
>  <compound>
O=C1C(Cl)=C(Cl)C(=O)C(CCNc2nccs2)=C1Cl

>  <result>
63.6 µM

$$$$
>  <compound>
CCCCN(CC)C(=O)C(=O)Cc1nc2ccc(C(=O)c3ccccc3)cc2[nH]c1=O

>  <result>
> 100 µM

$$$$
>  <compound>
O=C(OC1=CCN(Br)C1=O)C1=C(O)C(=O)N(Br)C1

>  <result>
> 100 µM

$$$$
>  <compound>
O=C1C2CCN(CC2)C1CN1CCOCC1 (stereo not given)

>  <result>
13.2 µM

$$$$

INPUT: Return TGI for the following compound: COc1cnc2c(c1)C(=O)c1c-2n(CCCN2CCCC2)c(=O)c2cc([N+](=O)[O-])ccc12
OUTPUT: 14.1 µM

INPUT: Return TGI for the following compound: CCN(CC)CCN(CC)CC.CCN(CC)CCN(CC)CC.[Cu+2].[Cu+2].[O-][Cl+3]([O-])([O-])[O-].[OH3+].[OH3+]
OUTPUT: > 100 µM

INPUT: Return TGI for the following compound: CCOC(=O)c1c(O)cn2c1[nH]c1cccc3cccc2c31
OUTPUT: > 100 µM

INPUT: Return TGI for the following compound: COc1cc(-n2ccnc2-c2ccc3ccccc3c2)cc(OC)c1OC
OUTPUT: 45.2 µM

INPUT: Return TGI for the following compound: COc1cc2nc(N3CCCN(C)CC3)nc(NC3CCN(Cc4ccccc4)CC3)c2cc1OC
OUTPUT: 4.02 µM

----------
- System: SF-268 CNS
- assay_notes: NCI tumour cell line growth inhibition, 48 h
Overview of reported TGI across a group of molecules:

>  <molecule>
COc1ccc(N2C(=O)C3CC(c4ccc(Br)cc4)c4c([nH]c5ccccc45)C3C2=O)cc1 (centres undefined)

>  <system>
SF-268 CNS

>  <TGI>
23.4 µM

$$$$

INPUT: Return TGI for the following molecule: COC(=O)c1cc2c(c(C(=O)OC)c1)CCC2
OUTPUT: > 100 µM

INPUT: Return TGI for the following molecule: CN(C)Cc1cc(Cl)c(O)c(CN(C)C)c1
OUTPUT: > 100 µM

INPUT: Return TGI for the following molecule: O=C(Cc1ccc2ccccc2c1)NCc1ccc(C(=O)NCCc2ccccc2)cc1
OUTPUT: > 100 µM

INPUT: Return TGI for the following molecule: COC(=O)C(CNC(=O)/C=C/c1ccc(OC)c(OC)c1)NC(=O)/C=C/c1ccc(OC)c(OC)c1 (centres undefined)
OUTPUT: > 100 µM

INPUT: Return TGI for the following molecule: COC(=O)C1=C(C)NC(=O)N2[C@@H](CCOCc3ccccc3)CC[C@@H]12
OUTPUT: > 50 µM

INPUT: Return TGI for the following molecule: C=C(C)[C@@H]1CC[C@]2(CO)CC[C@]3(C)[C@H](CC[C@@H]4[C@@]5(C)CCCNC(C)(C)[C@@H]5CC[C@]43C)[C@@H]12
OUTPUT: 3.54 µM

INPUT: Return TGI for the following molecule: O=[N+]([O-])c1nccn1CC(O)c1ccccc1 (centres undefined)
OUTPUT: > 100 µM

INPUT: Return TGI for the following molecule: Cc1ccc(S(=O)(=O)n2cc(C=O)c(-c3cn(S(=O)(=O)c4ccc(C)cc4)cc3-c3cn(S(=O)(=O)c4ccc(C)cc4)cc3C=O)c2)cc1
OUTPUT: > 100 µM

----------
- Tested on: NCI-H226 lung
- assay_notes: NCI tumour cell line growth inhibition, 48 h
Overview of reported TGI across a group of compounds:

Guide cases for TGI, answers given:
>  <compound>
Cc1c(CN2CCN(C(=O)[C@H](C)O)CC2)sc2c(N3CCOCC3)nc(-c3cnc(N)nc3)nc12

>  <system>
NCI-H226 lung

>  <result>
6.15 µM

$$$$
>  <compound>
C[C@H](Nc1nc(N)c(N=O)c(=O)n1C)C(=O)O

>  <system>
NCI-H226 lung

>  <result>
> 10 µM

$$$$
>  <compound>
Cc1ccc2nc3ccccc3c(C3C4C(=O)N(c5ccc(F)cc5)C(=O)C4ON3C(C(N)=O)c3ccccc3)c2c1 (configuration not stated)

>  <system>
NCI-H226 lung

>  <result>
> 100 µM

$$$$

INPUT: Return TGI for the following compound: O=C(O)c1cccc(S(=O)(=O)NCCO)c1
OUTPUT: > 100 µM

INPUT: Return TGI for the following compound: COc1cnc2c(c1)C(=O)c1c-2n(CCCN2CCCC2)c(=O)c2cc([N+](=O)[O-])ccc12
OUTPUT: 0.715 µM

INPUT: Return TGI for the following compound: CN(C)c1ccc(/C=c2\sc3nnc(-c4ccco4)n3c2=O)cc1
OUTPUT: > 100 µM

INPUT: Return TGI for the following compound: CCCCN(CC)C(=O)C(=O)Cc1nc2ccc(C(=O)c3ccccc3)cc2[nH]c1=O
OUTPUT: > 100 µM
